# SYSTEM TESTED: Acetylcholinesterase (Electrophorus electricus, UniProt O42275)
# Sequence (O42275 whole entry): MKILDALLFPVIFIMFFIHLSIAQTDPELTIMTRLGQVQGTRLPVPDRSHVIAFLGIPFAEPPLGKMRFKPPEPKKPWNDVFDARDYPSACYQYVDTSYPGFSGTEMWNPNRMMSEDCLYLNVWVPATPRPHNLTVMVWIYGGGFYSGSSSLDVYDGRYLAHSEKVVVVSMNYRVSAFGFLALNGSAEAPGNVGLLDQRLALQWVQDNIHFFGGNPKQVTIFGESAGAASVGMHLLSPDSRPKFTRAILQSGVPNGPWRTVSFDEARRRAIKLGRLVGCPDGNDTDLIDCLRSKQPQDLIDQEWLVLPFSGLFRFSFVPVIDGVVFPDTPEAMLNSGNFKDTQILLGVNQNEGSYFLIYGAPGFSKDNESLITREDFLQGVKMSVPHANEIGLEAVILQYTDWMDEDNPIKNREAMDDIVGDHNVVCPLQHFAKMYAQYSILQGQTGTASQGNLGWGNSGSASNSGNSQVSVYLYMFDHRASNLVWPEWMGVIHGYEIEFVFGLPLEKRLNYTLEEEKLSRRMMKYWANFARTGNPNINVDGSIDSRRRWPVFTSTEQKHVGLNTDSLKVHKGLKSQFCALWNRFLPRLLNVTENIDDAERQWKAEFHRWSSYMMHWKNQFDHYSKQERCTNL
# EXPERIMENT NOTES: Inhibition of electric eel AChE by Ellman's method
# CONDITION SET: read-out: IC50
Mark each entry true (1) if its IC50 sits below 900 nM, and false (0) for all others.

COMPOUND SMILES | GROUP
CCN(CCCCCCn1nc(-c2ccccc2O)ccc1=O)Cc1ccccc1Cl | false (0)
COc1ccccc1CN(C)CCCCCCn1nc(-c2ccccc2O)ccc1=O | false (0)
CCN(CCCCCCOc1ccc(-c2cc(N(C)C)ccc2O)nn1)Cc1ccccc1N(C)C | false (0)
CCN(CCCCCCn1nc(-c2ccccc2O)ccc1=O)Cc1ccc(N(C)C)cc1 | false (0)
CCN(CCCCCCOc1ccc(-c2ccccc2O)nn1)Cc1ccc(F)cc1 | false (0)
O=c1ccc(-c2ccccc2O)nn1CCCCCCN1CCCC1 | false (0)
CCN(CCCCCCn1nc(-c2cc(Cl)ccc2O)ccc1=O)Cc1ccccc1N(C)C | true (1)
CCN(CCCCCCn1nc(-c2cc(NC(C)=O)ccc2O)ccc1=O)Cc1ccccc1OC | true (1)
CCN(CCCCCCn1nc(-c2cc([N+](=O)[O-])ccc2O)ccc1=O)Cc1ccccc1OC | false (0)
CCN(CCCCCCCCn1nc(-c2cc(NC(C)=O)ccc2O)ccc1=O)Cc1ccccc1N(C)C | false (0)
CCN(CCCCCCn1nc(-c2cc(F)ccc2O)ccc1=O)Cc1cccc(F)c1 | true (1)
CN(CCCCCCn1nc(-c2ccccc2O)ccc1=O)Cc1ccccc1 | false (0)
CCN(CCCCCCCCn1nc(-c2cc(N(C)C)ccc2O)ccc1=O)Cc1ccccc1N(C)C | false (0)
CCN(CCCCCCn1nc(-c2cc(OC)ccc2O)ccc1=O)Cc1ccccc1OC | true (1)
CCN(CCCCCCn1nc(-c2cc(OC)ccc2O)ccc1=O)Cc1ccccc1N(C)C | true (1)
CCN(CCCCCCn1nc(-c2ccc(F)cc2O)ccc1=O)Cc1ccccc1N(C)C | false (0)
CCN(CCCCCCn1nc(-c2ccccc2O)ccc1=O)Cc1ccccc1N(C)C | true (1)

* * *

# SYSTEM TESTED: Acetylcholinesterase (Electrophorus electricus) (UniProt O42275)
# Sequence (O42275 24-633 limits assumed): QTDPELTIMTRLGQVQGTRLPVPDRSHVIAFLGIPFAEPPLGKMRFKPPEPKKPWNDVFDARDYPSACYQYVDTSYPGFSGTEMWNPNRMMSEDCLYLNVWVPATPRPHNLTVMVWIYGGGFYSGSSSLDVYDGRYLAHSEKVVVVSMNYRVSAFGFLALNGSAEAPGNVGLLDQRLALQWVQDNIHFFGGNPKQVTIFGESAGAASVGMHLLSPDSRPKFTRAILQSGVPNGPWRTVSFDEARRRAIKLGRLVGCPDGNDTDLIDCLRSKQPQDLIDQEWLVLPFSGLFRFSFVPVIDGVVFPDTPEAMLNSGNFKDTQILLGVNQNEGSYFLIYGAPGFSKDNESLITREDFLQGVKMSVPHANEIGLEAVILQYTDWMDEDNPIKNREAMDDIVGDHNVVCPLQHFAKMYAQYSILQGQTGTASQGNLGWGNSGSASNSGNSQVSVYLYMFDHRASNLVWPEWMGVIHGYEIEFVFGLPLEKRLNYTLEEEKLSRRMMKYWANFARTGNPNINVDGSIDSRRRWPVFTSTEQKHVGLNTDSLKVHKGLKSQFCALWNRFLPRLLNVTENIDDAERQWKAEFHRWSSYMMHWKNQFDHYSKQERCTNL
# EXPERIMENT NOTES: Inhibition of electric eel AChE at 10 uM by Ellman's method relative to control

COMPOUND SMILES | UNIT DESCRIPTOR | inhibition
CCN(CCCn1nc(-c2ccccc2O)ccc1=O)Cc1ccccc1N(C)C | % | 32.4
O=c1ccc(-c2ccccc2O)nn1CCCCCCN1CCOCC1 | % | 16.1
O=c1ccc(-c2ccccc2O)nn1CCCN1CCCCC1 | % | 27.1
CCN(CCCn1nc(-c2ccccc2O)ccc1=O)Cc1ccccc1 | % | 18.5
O=c1ccc(-c2ccccc2O)nn1CCCN1CCCC1 | % | 30.3
CN(CCCn1nc(-c2ccccc2O)ccc1=O)Cc1ccccc1 | % | 36.7
CCN(CCCn1nc(-c2ccccc2O)ccc1=O)Cc1ccccc1OC | % | 15.6
CCN(CC)CCCn1nc(-c2ccccc2O)ccc1=O | % | 17.4
O=c1ccc(-c2ccccc2O)nn1CCCN1CCOCC1 | % | 22.7
COc1ccccc1CN(C)CCCn1nc(-c2ccccc2O)ccc1=O | % | 17.6
CCN(CCCn1nc(-c2ccccc2O)ccc1=O)Cc1cccc(F)c1 | % | 18.7
